- System: UACC-257
- Assay details: NCI tumour cell line growth inhibition, 48 h
Calls of active or inactive are those of the source. No stated cut-off is given here; in the data, active = GI50 up to about 1.1 µM and inactive = higher.
Reported endpoint: GI50

Use these answered entries as a reference point.
- Compound: "COC(=O)N1CC(=O)C(C(=O)NC23CC4CC(CC(C4)C2)C3)C1 (stereo not drawn)"
  Reported endpoint: "GI50"
  Assay result: "> 100 µM (inactive)"
- Compound: "CC(C)(C)C(=O)OC(N)/C=C/c1ccccc1 (stereo not drawn)"
  Reported endpoint: "GI50"
  Assay result: "> 100 µM (inactive)"
- Compound: "CC(C)(C)c1cc(C(C)(C)C)c(SSc2c(C(C)(C)C)cc(C(C)(C)C)c(O)c2O)c(O)c1O"
  Reported endpoint: "GI50"
  Assay result: "9.95 µM (inactive)"
- Compound: "CN(C)CCNc1ccc2ncnc3c2c1C(=O)c1ccccc1-3"
  Reported endpoint: "GI50"
  Assay result: "2.09 µM (inactive)"

input: Record request: GI50 value, item CN(C)[C@H]1CC[C@H]2[C@@H]3CCC4C[C@@H](NC(=O)NC(Cc5ccccc5)c5nccs5)CC[C@]4(C)[C@H]3CC[C@]12C (stereo partly drawn)
output: 1.87 µM (inactive)
